# Tested on: pERK in MKN1 cells
# TEST_NAME: Inhibition of KRas phosphorylation of ERK (Cisbio HTRF pERK assay)
# ASSAY_SETUP: Homo sapiens, MKN-1, 3 h, read-out: Inhibition (HTRF IC50) of KRas-mediated Phosphorylation of ERK, MKN1
pIC50: −log10 of the molar value.
METRIC: pIC50

Answered examples (5):
{"columns": ["COMPOUND", "METRIC", "RECORDED_VALUE"],
 "data": [
  ["C#Cc1c(F)ccc2cc(O)cc(-c3ncc4c(N5CCOCC(CO)C5)nc(OC[C@@]56CCCN5C[C@H](F)C6)nc4c3F)c12 (stereo partly drawn) [Example 391]", "pIC50", 7.92],
  ["CCc1c(F)ccc2cc(O)cc(-c3ncc4c(N5CCC[C@]6(C5)C[C@H](O)C6)nc(OC[C@@]56CCCN5C[C@H](F)C6)nc4c3F)c12 (single isomer, unassigned) [Example 323]", "pIC50", 8.70],
  ["CCc1c(F)ccc2cc(O)cc(-c3ncc4c(N5CCCc6nn(C(=O)N(C)C)cc6C5)nc(OC[C@@]56CCCN5C[C@H](F)C6)nc4c3F)c12 [Example 353]", "pIC50", 7.62],
  ["CCc1c(F)ccc2cc(O)cc(-c3ncc4c(N5CCC[C@@H](O)C5)nc(OC[C@@]56CCCN5C[C@H](F)C6)nc4c3F)c12 [Example 193]", "pIC50", 8.15],
  ["CCc1c(F)ccc2cc(O)cc(-c3ncc4c(N5CCC[C@@](C)(O)C5)nc(OCC5(CN6CCCCC6)CC5)nc4c3F)c12 [Example 331]", "pIC50", 9.00]
]}

(I) CCc1c(F)ccc2cc(O)cc(-c3ncc4c(NC[C@H]5COC[C@H]5O)nc(OC[C@@]56CCCN5C[C@H](F)C6)nc4c3F)c12 (single isomer, unassigned) [Example 492]
(II) CC1(O)COCCN(c2nc(OC[C@@]34CCCN3C[C@H](F)C4)nc3c(F)c(-c4cc(O)cc5ccc(F)c(Br)c45)ncc23)C1 (stereo partly drawn) [Example 400]
(III) Oc1cc(-c2ncc3c(N4CCCC5(CC(O)C5)C4)nc(OC[C@@]45CCCN4C[C@H](F)C5)nc3c2F)c2c(Br)c(F)ccc2c1 (stereo partly drawn) [Example 407]
(IV) CCc1c(F)ccc2cc(O)cc(-c3ncc4c(N5CCCC6(CC(F)C6)C5)nc(OC[C@@]56CCCN5C[C@H](F)C6)nc4c3F)c12 (stereo partly drawn) [Example 344]
(V) CCc1c(F)ccc2cc(O)cc(-c3ncc4c(N5CCC[C@@](C)(O)C5)nc(OC[C@@]56CCCN5[C@H](COC(=O)N5CCOCC5)CC6)nc4c3F)c12 [Example 511]
Endpoint returns the given compounds ordered by ascending pIC50. Write out the labels following the order that was asked for.
IV, I, III, II, V
(IV: 6.10, I: 6.60, III: 7.82, II: 8.15, V: 8.70)

(I) C#Cc1c(F)ccc2cc(O)cc(-c3ncc4c(N5CCCC6(CNC(=O)N6)C5)nc(OC[C@@]56CCCN5C[C@H](F)C6)nc4c3F)c12 (stereo partly drawn) [Example 395]
(II) CCc1c(F)ccc2cc(O)cc(-c3ncc4c(N5CCCn6nc(C(=O)N(C)C)c(Cl)c6C5)nc(OC[C@@]56CCCN5C[C@H](F)C6)nc4c3F)c12 [Example 504]
Hello, I am sorting some records. Could you say if I or II has the smaller pIC50 value? Mark your selection by writing its label.
I

(I) CCc1c(F)ccc2cc(O)cc(-c3ncc4c(N5CCCCCC5)nc(OC[C@@]56CCCN5C[C@H](F)C6)nc4c3F)c12 [Example 317]
(II) CCc1c(F)ccc2cc(O)cc(-c3ncc4c(N5CC6CCC(C6)C5)nc(OC[C@@]56CCCN5C[C@H](F)C6)nc4c3F)c12 [Example 350]
(III) CCc1c(F)ccc2cc(O)cc(-c3ncc4c(N5CCCn6nc(C(=O)NCCO)cc6C5)nc(OC[C@@]56CCCN5C[C@H](F)C6)nc4c3F)c12 [Example 506]
(IV) CN(C)CC1(COc2nc(N3CCC[C@@](C)(O)C3)c3cnc(-c4cc(O)cc(Cl)c4C4CC4)c(F)c3n2)CC1 [Example 517]
List items by pIC50 in falling order. Give the order by naming the labels one after another as requested.
I, IV, II, III
(I: 7.70, IV: 7.38, II: 6.68, III: 6.15)

(I) CCc1c(F)ccc2cc(O)cc(-c3ncc4c(NCCN5CCNC5=O)nc(OC[C@@]56CCCN5C[C@H](F)C6)nc4c3F)c12 [Example 372]
(II) CCc1c(F)ccc2cc(O)cc(-c3ncc4c(N5CC6CC(O)C(C6)C5)nc(OC[C@@]56CCCN5C[C@H](F)C6)nc4c3F)c12 (stereo partly drawn) [Example 82]
Compare reported pIC50 values for I and II . Which is lower? Which one? Tell me its label.
I

(1) CCc1c(F)ccc2cc(O)cc(-c3ncc4c(NCC5CCNC5=O)nc(OC[C@@]56CCCN5C[C@H](F)C6)nc4c3F)c12 (stereo partly drawn) [Example 368]
(2) O=S1(=O)NCC2(CCCN(c3nc(OC[C@@]45CCCN4C[C@H](F)C5)nc4c(F)c(-c5cc(O)cc6ccc(F)c(Cl)c56)ncc34)C2)N1 (stereo partly drawn) [Example 417]
Select one: 1 or 2 . Criterion: greater recorded pIC50. Answer by stating the label of the chosen item.
2
(2: 7.70, 1: 6.72)

(1) CCc1c(F)ccc2cc(O)cc(-c3ncc4c(NCc5n[nH]cc5C(N)=O)nc(OC[C@@]56CCCN5C[C@H](F)C6)nc4c3F)c12 [Example 162]
(2) CCc1c(F)ccc2cc(O)cc(-c3ncc4c(N5CCCn6nc(C(=O)NC(C)C)cc6C5)nc(OC[C@@]56CCCN5C[C@H](F)C6)nc4c3F)c12 [Example 357]
Which has the smaller recorded pIC50, 1 or 2 ? Record your answer as the label of the chosen record.
1
(1: 6.73, 2: 7.15)

(a) CCc1c(F)ccc2cc(O)cc(-c3ncc4c(N5C[C@@H]6C[C@H](C5)[C@H](O)C6)nc(OCC5(CN(C)C)CC5)nc4c3F)c12 [Example 360]
(b) CCc1c(F)ccc2cc(O)cc(-c3ncc4c(NCCC5CCC(=O)N5)nc(OC[C@@]56CCCN5C[C@H](F)C6)nc4c3F)c12 (stereo partly drawn) [Example 377]
Which has the smaller recorded pIC50, a or b ? // caller expects the label of the chosen entry
b
(b: 5.64, a: 8.70)
